Listed here are compounds together with their documented MIC.
test system: Burkholderia pseudomallei; assay: Antibacterial activity against Burkholderia pseudomallei AHS 1 NCTC 8016 by two fold serial dilution method; type: functional
Non-standard residues stand in square brackets, D forms with d. Residues, ends and D or L forms follow the SMILES beside them. Ac5c = NC1(C(=O)O)CCCC1

Query string: State the recorded MIC for this entry: CC(=O)NCC(=O)N[C@@H](Cc1ccccc1)C(=O)NC1(C(=O)NCC(=O)NC2(C(=O)N[C@@H](CCCCN)C(=O)NC3(C(=O)NCC(=O)NC4(C(=O)N[C@@H](Cc5ccccc5)C(=O)NC5(C(=O)NCC(=O)NC6(C(=O)NCC(=O)N[C@@H](CCCCN)C(=O)NC7(C(=O)N[C@@H](CCCCN)C(=O)N[C@@H](CCCCN)C(=O)N[C@@H](CCCCN)C(=O)N[C@@H](CCCCN)C(N)=O)CCCC7)CCCC6)CCCC5)CCCC4)CCCC3)CCCC2)CCCC1 (Ac-GF[Ac5c]G[Ac5c]K[Ac5c]G[Ac5c]F[Ac5c]G[Ac5c]GK[Ac5c]KKKK-NH2)
Result string: > 46 µM

Origin of values: ChEMBL document CHEMBL3822432
